Source of measurements: patent US9273040B2

This listing pairs molecules with measured ratio of Nav 1.5:Nav 1.7 potency, determined by PatchXpress measurement.
# subject of test: human Nav1.5 channels stably expressed in HEK 293 cells (Homo sapiens, UniProt Q14524)
# Construct: expressed in transfected cells
# Sequence (Q14524 whole entry): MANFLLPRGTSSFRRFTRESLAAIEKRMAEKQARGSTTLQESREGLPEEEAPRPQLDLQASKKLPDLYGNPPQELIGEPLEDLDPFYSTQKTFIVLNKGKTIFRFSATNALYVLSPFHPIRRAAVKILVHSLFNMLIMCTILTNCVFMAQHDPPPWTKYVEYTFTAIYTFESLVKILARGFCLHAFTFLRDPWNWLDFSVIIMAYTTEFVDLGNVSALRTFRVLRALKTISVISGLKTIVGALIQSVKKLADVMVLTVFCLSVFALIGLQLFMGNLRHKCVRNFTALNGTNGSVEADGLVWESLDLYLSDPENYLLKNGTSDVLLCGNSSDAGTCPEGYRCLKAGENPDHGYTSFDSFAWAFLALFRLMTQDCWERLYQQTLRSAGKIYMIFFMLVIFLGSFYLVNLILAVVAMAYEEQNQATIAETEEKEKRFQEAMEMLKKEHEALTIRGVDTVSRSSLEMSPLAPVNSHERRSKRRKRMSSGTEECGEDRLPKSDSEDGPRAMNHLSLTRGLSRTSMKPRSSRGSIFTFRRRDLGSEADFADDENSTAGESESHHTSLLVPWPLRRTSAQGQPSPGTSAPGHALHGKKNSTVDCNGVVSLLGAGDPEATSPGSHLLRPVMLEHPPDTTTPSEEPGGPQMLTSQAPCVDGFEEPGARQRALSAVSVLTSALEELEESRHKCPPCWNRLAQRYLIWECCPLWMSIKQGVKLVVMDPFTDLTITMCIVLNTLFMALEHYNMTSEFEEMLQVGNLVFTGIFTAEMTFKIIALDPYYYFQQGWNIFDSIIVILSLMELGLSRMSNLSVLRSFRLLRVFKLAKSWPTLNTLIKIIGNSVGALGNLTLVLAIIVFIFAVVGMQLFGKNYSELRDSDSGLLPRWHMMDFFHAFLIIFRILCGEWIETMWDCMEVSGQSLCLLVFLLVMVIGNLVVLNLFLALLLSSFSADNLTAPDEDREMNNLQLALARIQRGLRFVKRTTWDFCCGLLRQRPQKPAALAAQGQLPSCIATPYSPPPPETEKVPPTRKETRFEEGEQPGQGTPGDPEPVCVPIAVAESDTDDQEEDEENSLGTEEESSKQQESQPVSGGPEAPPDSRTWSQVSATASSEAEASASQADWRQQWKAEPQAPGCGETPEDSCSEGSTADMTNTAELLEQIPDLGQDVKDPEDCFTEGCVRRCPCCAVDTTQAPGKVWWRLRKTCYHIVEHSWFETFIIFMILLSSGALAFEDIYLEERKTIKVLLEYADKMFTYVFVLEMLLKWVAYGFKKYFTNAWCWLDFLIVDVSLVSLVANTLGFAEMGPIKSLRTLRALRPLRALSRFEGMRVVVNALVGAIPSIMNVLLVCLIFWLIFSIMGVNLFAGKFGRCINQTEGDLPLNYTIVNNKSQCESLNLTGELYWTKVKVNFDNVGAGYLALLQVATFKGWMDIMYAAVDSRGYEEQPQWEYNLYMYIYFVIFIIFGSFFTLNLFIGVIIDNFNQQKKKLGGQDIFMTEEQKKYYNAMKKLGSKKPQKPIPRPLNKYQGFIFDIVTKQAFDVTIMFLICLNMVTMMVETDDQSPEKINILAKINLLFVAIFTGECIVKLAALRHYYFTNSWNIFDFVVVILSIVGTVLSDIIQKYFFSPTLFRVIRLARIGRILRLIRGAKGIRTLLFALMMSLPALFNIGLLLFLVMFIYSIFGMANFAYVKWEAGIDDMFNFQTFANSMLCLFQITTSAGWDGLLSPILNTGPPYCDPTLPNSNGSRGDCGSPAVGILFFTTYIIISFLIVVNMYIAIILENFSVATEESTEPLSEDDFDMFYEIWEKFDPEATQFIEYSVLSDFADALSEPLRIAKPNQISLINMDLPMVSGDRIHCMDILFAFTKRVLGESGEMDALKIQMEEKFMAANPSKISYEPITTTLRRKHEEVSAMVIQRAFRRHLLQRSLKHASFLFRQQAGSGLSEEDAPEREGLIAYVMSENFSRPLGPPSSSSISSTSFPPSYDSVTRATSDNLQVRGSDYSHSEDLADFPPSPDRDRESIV
# measurement protocol: PatchXpress 7000 automated patch-clamp, sodium current
# Type: cell-based
# condition description: selectivity over Nav1.5

[
  {
    "molecule": "C[C@H](c1ccccc1C1(O)CNC1)n1c(=O)oc2cc(S(=O)(=O)Nc3ncns3)c(F)cc21",
    "measurement": 110
  },
  {
    "molecule": "C[C@H](c1ccccc1C#CCN)n1c(=O)oc2cc(S(=O)(=O)Nc3ncns3)c(Br)cc21",
    "measurement": 334
  },
  {
    "molecule": "CCC(O)(C#Cc1ccccc1[C@@H](C)n1c(=O)oc2cc(S(=O)(=O)Nc3ncns3)c(F)cc21)CC",
    "measurement": 91
  },
  {
    "molecule": "O=c1oc2cc(S(=O)(=O)Nc3ncns3)c(F)cc2n1Cc1cccc2c1CC(N1CCCC1)CC2 (racemic)",
    "measurement": 802
  },
  {
    "molecule": "O=c1oc2cc(S(=O)(=O)Nc3ncns3)ccc2n1Cc1cccc2c1CCNC2",
    "measurement": "> 9"
  },
  {
    "molecule": "CC(c1ccccc1)n1c(=O)oc2cc(S(=O)(=O)Nc3ncns3)ccc21 (centres unmarked)",
    "measurement": "> 88"
  },
  {
    "molecule": "C[C@H](c1cccc(-c2ccn(C)n2)c1)n1c(=O)oc2cc(S(=O)(=O)Nc3nccs3)c(F)cc21",
    "measurement": 86
  }
]

May I ask what ratio of Nav 1.5:Nav 1.7 potency, determined by PatchXpress measurement has been recorded for O=c1oc2cc(S(=O)(=O)Nc3ncns3)c(F)cc2n1Cc1cccc2c1CC(NCC(F)F)CC2 (racemic) ?
121
